Recorded MIC values for a group of molecules are listed next.
Test system: Staphylococcus epidermidis
Assay: In vitro antibacterial activity against Staphylococcus epidermis (S.e.1) […].
Type: functional
Give the number; µg/mL is assumed, so skip it.

Ask: // fetch MIC given entry CC(=O)NC[C@H]1CN(c2ccc(N3CCN(Cc4cc(-c5ccc(Cl)cc5)no4)CC3)c(F)c2)C(=O)O1
Result: 16

Ask: // fetch MIC given entry CC(=O)NC[C@H]1CN(c2ccc(N3CCOCC3)c(F)c2)C(=O)O1
Result: 1

Ask: // fetch MIC given entry CC(=O)NC[C@H]1CN(c2ccc(N3CCN(C(=O)c4cc(-c5cnsn5)no4)CC3)c(F)c2)C(=O)O1
Result: 1

Ask: // fetch MIC given entry COc1cc(C(=O)N2CCN(c3ccc(N4C[C@H](CNC(C)=O)OC4=O)cc3F)CC2)on1
Result: 0.5

Ask: // fetch MIC given entry CC(=O)NC[C@H]1CN(c2ccc(N3CCN(C(=O)c4cc(C(=O)N(C)C)no4)CC3)c(F)c2)C(=O)O1
Result: 2

* * *

Recorded MIC values for a group of compounds are listed next.
Test system: Staphylococcus epidermidis
Assay: In vitro antibacterial activity against Staphylococcus epidermis (S.e.1) […].
Type: functional
Reply with the number, then its unit.

CN[C@H](CC(C)C)C(=O)N[C@H]1C(=O)N[C@@H](CC(N)=O)C(=O)N[C@H]2C(=O)N[C@H]3C(=O)N[C@H](C(=O)N[C@H](C(=O)O)c4cc(O)cc(O)c4-c4cc3ccc4O)[C@H](O)c3ccc(c(Cl)c3)Oc3cc2cc(c3O[C@@H]2O[C@H](CO)[C@@H](O)[C@H](O)[C@H]2O[C@H]2C[C@](C)(N)[C@H](O)[C@H](C)O2)Oc2ccc(cc2Cl)[C@H]1O: 0.5 µg/mL
CC(=O)NC[C@H]1CN(c2ccc(N3CCN(C(=O)c4cc(C(F)(F)F)no4)CC3)c(F)c2)C(=O)O1: 2 µg/mL

Okay, next one:
Ask: // fetch MIC given entry CC(=O)NC[C@H]1CN(c2ccc(N3CCN(Cc4cc(-c5ccc(F)cc5)no4)CC3)c(F)c2)C(=O)O1
Result: 2 µg/mL

These data points were gathered from ChEMBL document CHEMBL1131977.
